We begin with a simple list: items and their reported EC50.
- TARGET OR SYSTEM: human TPO receptor (hTPOR) (Homo sapiens, UniProt P40238)
- Construct: expressed in transfected cells; host or cells: BaF-B03 (murine IL-3 dependent cell line)
- PROCEDURE SUMMARY: Thrombopoietic activity: proliferation of TPO dependent BaF/hTPOR cells (WST-1, absorbance at 450 nm)
- Assay type: cell-based
- TEST PARAMETERS: 20 h + 4 h WST-1, ED50 = half concentration of the concentration showing the maximum thrombopoietic activity, Table 1
Numeric only. Scale: nM

Example cases with answers are listed next.
1) CCCCCOCCCc1cccc(-c2csc(NC(=O)c3cc(Cl)c(C=C(C)C(=O)O)c(Cl)c3)n2)c1F    1.15
2) CC(=Cc1c(F)cc(C(=O)Nc2nc(-c3cccc(CCC(C)(C)C)c3F)cs2)cc1F)C(=O)O    4
3) CCCC(CCc1cccc2c1CCc1sc(NC(=O)c3cc(F)c(C=C(C)C(=O)O)c(F)c3)nc1-2)OC (stereo not shown) [Compound A1]    2.27

input: Quick check: EC50 of COC(c1cccc(-c2csc(NC(=O)c3cc(Cl)c(C=C(C)C(=O)O)c(Cl)c3)n2)c1F)C(C)(C)C (stereo not shown) ?
output: 1.19

input: # lookup: EC50 of CCCCC(OCC)c1cccc(-c2csc(NC(=O)c3cc(Cl)c(C=C(C)C(=O)O)c(Cl)c3)n2)c1F (stereo not shown)
output: 1

input: # EC50 lookup, item CCCCCCOCCCc1cccc(-c2csc(NC(=O)c3cc(Cl)c(C=C(C)C(=O)O)c(Cl)c3)n2)c1F
output: 0.78

input: So what does the record say about EC50 for CCCCOCCCc1cccc(-c2csc(NC(=O)c3cc(Cl)c(/C=C(\C)C(=O)O)c(Cl)c3)n2)c1OC ?
output: 15.8

====

- TARGET OR SYSTEM: human TPO receptor (hTPOR) (Homo sapiens)
- Construct: expressed in transfected cells; host or cells: BaF-B03 (murine IL-3 dependent cell line)
- Sequence (P40238 26-635): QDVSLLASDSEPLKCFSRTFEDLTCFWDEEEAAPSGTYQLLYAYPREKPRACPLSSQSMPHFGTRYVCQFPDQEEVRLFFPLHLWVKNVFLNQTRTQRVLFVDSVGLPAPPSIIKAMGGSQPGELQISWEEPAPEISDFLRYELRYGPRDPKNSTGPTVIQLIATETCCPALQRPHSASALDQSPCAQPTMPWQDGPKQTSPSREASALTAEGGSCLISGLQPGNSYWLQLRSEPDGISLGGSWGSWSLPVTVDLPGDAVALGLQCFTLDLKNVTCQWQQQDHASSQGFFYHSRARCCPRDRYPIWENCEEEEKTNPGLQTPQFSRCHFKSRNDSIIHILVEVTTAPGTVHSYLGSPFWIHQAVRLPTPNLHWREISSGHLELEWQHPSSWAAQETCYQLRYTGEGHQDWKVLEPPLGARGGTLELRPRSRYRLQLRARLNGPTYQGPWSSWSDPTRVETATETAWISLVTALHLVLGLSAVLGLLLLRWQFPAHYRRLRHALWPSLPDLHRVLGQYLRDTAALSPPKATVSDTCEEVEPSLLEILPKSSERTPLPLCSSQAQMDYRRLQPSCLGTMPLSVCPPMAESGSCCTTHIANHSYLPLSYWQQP
- PROCEDURE SUMMARY: Thrombopoietic activity: proliferation of TPO dependent BaF/hTPOR cells (WST-1, absorbance at 450 nm)
- Assay type: cell-based
- TEST PARAMETERS: 20 h + 4 h WST-1, ED50 = half concentration of the concentration showing the maximum thrombopoietic activity, Table 1
PROPERTY NAME: EC50 (nM)
Your answer should be a plain number; it is taken to be in nM.

Worked cases, answers included:
1. CCCOC(CC)c1cccc(-c2csc(NC(=O)c3cc(Cl)c(C=C(C)C(=O)O)c(Cl)c3)n2)c1F (stereo not shown)    1.39
2. CCCCOCCCc1cccc2c1CCc1sc(NC(=O)c3cc(F)c(C=C(C)C(=O)O)c(F)c3)nc1-2    1.91
3. CCCCCCCOc1cccc(-c2csc(NC(=O)c3cc(Cl)c(/C=C(\OC)C(=O)O)c(Cl)c3)n2)c1OC    19.4
4. CCCCOC(C)c1cccc(-c2csc(NC(=O)c3cc(Cl)c(/C=C(\C)C(=O)O)c(Cl)c3)n2)c1OC (stereo not shown)    8.25
5. CC(=Cc1c(F)cc(C(=O)Nc2nc(-c3cccc(CCCOCCC(C)(C)C)c3F)cs2)cc1F)C(=O)O    0.88
6. CCCCOCCCC(OCCCC)c1cccc(-c2csc(NC(=O)c3cc(F)c(C=C(C)C(=O)O)c(F)c3)n2)c1F (stereo not shown)    0.68

Below: the item to evaluate.
input: Tell me the measured EC50 of CCCCCCOCc1cccc(-c2csc(NC(=O)c3cc(F)c(/C=C(\C)C(=O)O)c(F)c3)n2)c1OC , please.
output: 13.1

====

- TARGET OR SYSTEM: human TPO receptor (hTPOR) (Homo sapiens)
- Construct: expressed in transfected cells; host or cells: BaF-B03 (murine IL-3 dependent cell line)
- PROCEDURE SUMMARY: Thrombopoietic activity: proliferation of TPO dependent BaF/hTPOR cells (WST-1, absorbance at 450 nm)
- Assay type: cell-based
- TEST PARAMETERS: 20 h + 4 h WST-1, ED50 = half concentration of the concentration showing the maximum thrombopoietic activity, Table 1
Listed molecules paired with reported pEC50
Field pEC50 (float): negative decimal logarithm of the concentration in molar.

1) COc1c(CCCOCC2CC2)cccc1-c1csc(NC(=O)c2cc(Cl)c(/C=C(\C)C(=O)O)c(Cl)c2)n1    7.72
2) COc1c(-c2csc(NC(=O)c3cc(F)c(/C=C(\C)C(=O)O)c(F)c3)n2)cccc1C(CC(C)(C)C)OC (stereo not shown)    7.77
3) COc1c(COCCC(C)(C)C)cccc1-c1csc(NC(=O)c2cc(F)c(/C=C(\C)C(=O)O)c(F)c2)n1    7.88
4) CCCCC(OCCC)c1cccc(-c2csc(NC(=O)c3cc(F)c(C=C(C)C(=O)O)c(F)c3)n2)c1F (stereo not shown)    9.17
5) CCC(CC)OCc1cccc(-c2csc(NC(=O)c3cc(F)c(/C=C(\C)C(=O)O)c(F)c3)n2)c1OC    7.74

input: Name the recorded pEC50 for COc1c(COCCC(C)(C)C)cccc1-c1csc(NC(=O)c2cc(Cl)c(C=C(C)C(=O)O)c(Cl)c2)n1 (stereo in doubt) .
output: 7.77

input: What value of measured pEC50 is listed for C/C(=C\c1c(F)cc(C(=O)Nc2nc3c(s2)COc2c-3cccc2C(C)C)cc1F)C(=O)O ?
output: 7.89

====

Each entry below carries its recorded EC50.
- TARGET OR SYSTEM: human TPO receptor (hTPOR) (Homo sapiens)
- Construct: expressed in transfected cells; host or cells: BaF-B03 (murine IL-3 dependent cell line)
- PROCEDURE SUMMARY: Thrombopoietic activity: proliferation of TPO dependent BaF/hTPOR cells (WST-1, absorbance at 450 nm)
- Type: cell-based
- TEST PARAMETERS: 20 h + 4 h WST-1, ED50 = half concentration of the concentration showing the maximum thrombopoietic activity, Table 1
Express it in nM; write the number only.

1. CCCCCCCC(OC)c1cccc(-c2csc(NC(=O)c3cc(F)c(C=C(C)C(=O)O)c(F)c3)n2)c1F (stereo not shown) [Compound B25]    0.93
2. CCCCCCOC(c1cccc(-c2csc(NC(=O)c3cc(F)c(/C=C(\C)C(=O)O)c(F)c3)n2)c1OC)C1CCCCC1 (stereo not shown) [Compound B519]    1.03
3. CCCCCCc1cccc2c1OCc1sc(NC(=O)c3cc(F)c(/C=C(\C)C(=O)O)c(F)c3)nc1-2 [Compound A1314]    12.5

// next entry
input: Would you kindly share the measured EC50 for CCC(CC)OCc1cccc(-c2csc(NC(=O)c3cc(Cl)c(/C=C(\C)C(=O)O)c(Cl)c3)n2)c1OC [Compound B1892] ?
output: 11.6

====

- TARGET OR SYSTEM: human TPO receptor (hTPOR) (Homo sapiens, UniProt P40238)
- Construct: expressed in transfected cells; host or cells: BaF-B03 (murine IL-3 dependent cell line)
- PROCEDURE SUMMARY: Thrombopoietic activity: proliferation of TPO dependent BaF/hTPOR cells (WST-1, absorbance at 450 nm)
- Assay type: cell-based
- TEST PARAMETERS: 20 h + 4 h WST-1, ED50 = half concentration of the concentration showing the maximum thrombopoietic activity, Table 2
- Description: The TPO dependent BaF/hTPOR cell line which was established by introducing human TPO receptor (hTPOR) into BaF-B03 cells according to Collins et al (J. Cell. Physiol., 137:293-298 (1988)) was used to test the thrombopoietic activity of the present compound. The DNA sequences and encoded peptide sequences for human hTPOR have been described by Vigon et al (Proc. Natl. Acad. Sci. USA, 89:5640-5644 (1992)). […] The absorbance at 450 nm was measured. […]
PROPERTY NAME: EC50 (nM)
// return numeric value only (unit: nM, not printed)

1) COc1c(CCCOCC2CCC2)cccc1-c1csc(NC(=O)c2cc(Cl)c(/C=C(\C)C(=O)O)c(Cl)c2)n1 [Compound B1855]    21.3
2) CO/C(=C\c1c(Cl)cc(C(=O)Nc2nc(-c3cccc(OCCC4CCCCC4)c3OC)cs2)cc1Cl)C(=O)O [Compound B1919]    27.9

input: What value of EC50 has been reported for the following compound? CO/C(=C\c1c(F)cc(C(=O)Nc2nc(-c3cccc(CCCOCC(C)(C)C)c3F)c(OC)s2)cc1F)C(=O)O [Compound B1904]
output: 24.6

input: Record request: EC50 value, item CCCCCC(OC)c1cccc(-c2nc(NC(=O)c3cc(Cl)c(/C=C(\OC)C(=O)O)c(Cl)c3)sc2OC)c1F (centres unmarked) [Compound B1861]
output: 22.8

input: Please look up its EC50: CO/C(=C\c1c(Cl)cc(C(=O)Nc2nc(-c3cccc(COCCCC(C)C)c3OC)cs2)cc1Cl)C(=O)O [Compound B1941]
output: 24.1

input: Given the compound COc1c(CCCOCC(C)C)cccc1-c1csc(NC(=O)c2cc(Cl)c(/C=C(\C)C(=O)O)c(Cl)c2)n1 [Compound B1878] , what is its reported EC50?
output: 21.2

input: Bench note: what EC50 did CO/C(=C\c1c(Cl)cc(C(=O)Nc2nc(-c3cccc(CCOCCCC(C)C)c3OC)cs2)cc1Cl)C(=O)O [Compound B1923] show?
output: 20.2

input: # query: EC50 of entry CO/C(=C\c1c(Cl)cc(C(=O)Nc2nc(-c3cccc(CCCOCC4CCCC4)c3OC)cs2)cc1Cl)C(=O)O [Compound B1951]
output: 22.3

input: What value of EC50 has been recorded for this entry: CCCOCCCc1cccc(-c2csc(NC(=O)c3cc(F)c(/C=C(\C)C(=O)O)c(F)c3)n2)c1OC [Compound B380]
output: 23.2

input: Bench note: what EC50 did COc1c(CCOCCCCF)cccc1-c1csc(NC(=O)c2cc(Cl)c(/C=C(\C)C(=O)O)c(Cl)c2)n1 [Compound B2003] show?
output: 22.7

input: Given the entry CCCCCOCc1cccc(-c2csc(NC(=O)c3cc(Cl)c(/C=C(\C)C(=O)O)c(Cl)c3)n2)c1OC [Compound B1886] , report its measured EC50.
output: 22.1

input: Recorded EC50 for CO/C(=C\c1c(Cl)cc(C(=O)Nc2nc(-c3cccc(COCCC(C)(C)C)c3OC)cs2)cc1Cl)C(=O)O [Compound B1937] , please?
output: 23.1

input: Which EC50 is listed for CO/C(=C\c1c(Cl)cc(C(=O)Nc2nc(-c3cccc(C(OC)C(C)(C)C)c3F)c(OC)s2)cc1Cl)C(=O)O (centres unmarked) [Compound B1909] ?
output: 25.9

input: Dear colleague, I am looking for the recorded EC50 of the following compound: CCCCCOCCc1cccc(-c2csc(NC(=O)c3cc(F)c(/C=C(\C)C(=O)O)c(F)c3)n2)c1OC [Compound B1924]
output: 20.6
